# System: NS3 protease domain from GT 1b HCV-infected subjects in replicon shuttle vector
# procedureText: Replicon transient transfection EC50, NS3 protease domain from subjects cloned into shuttle vector, GT 1b
# Type: cell-based
# details: Hepatitis C virus, GT1B, 24 h, read-out: EC50 Day 1, Subject J, GT 1b, 100/100 mg dose group, Day 1 (baseline) sample
readoutKind: EC50 (nM)

[[record]]
smilesdata = "Cc1cnc(C(=O)N[C@H]2CCCCC/C=C\\[C@@H]3C[C@@]3(C(=O)NS(=O)(=O)C3CC3)NC(=O)[C@@H]3C[C@@H](Oc4nc5ccccc5c5ccccc45)CN3C2=O)cn1"
readoutkind = "EC50"
quantitativeresult = 0.04


====

# Test system: NS3 protease domain from GT 1a HCV-infected subjects in replicon shuttle vector
# procedureText: Replicon transient transfection EC50, NS3 protease domain from subjects cloned into shuttle vector, GT 1a
# Format: cell-based
# details: Hepatitis C virus, GT1A, 24 h, read-out: EC50 Day 1, Subject W, GT 1a, 50/100 mg dose group, Day 1 (baseline) sample
readoutKind: EC50 (nM)

[[record]]
compound = "Cc1cnc(C(=O)N[C@H]2CCCCC/C=C\\[C@@H]3C[C@@]3(C(=O)NS(=O)(=O)C3CC3)NC(=O)[C@@H]3C[C@@H](Oc4nc5ccccc5c5ccccc45)CN3C2=O)cn1 [Compound I]"
quantitativeresult = 1.54


====

# System: NS3 protease domain from GT 1a HCV-infected subjects in replicon shuttle vector
# procedureText: Replicon transient transfection EC50, NS3 protease domain from subjects cloned into shuttle vector, GT 1a
# Format: cell-based
# details: Hepatitis C virus, GT1A, 24 h, read-out: EC50 Day 1, Subject N, GT 1a, 100/100 mg dose group, Day 1 (baseline) sample
readoutKind: EC50 (nM)

[[record]]
smilesdata = "Cc1cnc(C(=O)N[C@H]2CCCCC/C=C\\[C@@H]3C[C@@]3(C(=O)NS(=O)(=O)C3CC3)NC(=O)[C@@H]3C[C@@H](Oc4nc5ccccc5c5ccccc45)CN3C2=O)cn1"
testedsystem = "NS3 protease domain from GT 1a HCV-infected subjects in replicon shuttle vector"
quantitativeresult = 0.58


====

# Test system: NS3 protease domain from GT 1b HCV-infected subjects in replicon shuttle vector
# procedureText: Replicon transient transfection EC50, NS3 protease domain from subjects cloned into shuttle vector, GT 1b
# Assay type: cell-based
# details: Hepatitis C virus, GT1B, 24 h, read-out: EC50 Day 1, Subject F, GT 1b, 200/100 mg dose group, Day 1 (baseline) sample
readoutKind: EC50 (nM)

[[record]]
smilesdata = "Cc1cnc(C(=O)N[C@H]2CCCCC/C=C\\[C@@H]3C[C@@]3(C(=O)NS(=O)(=O)C3CC3)NC(=O)[C@@H]3C[C@@H](Oc4nc5ccccc5c5ccccc45)CN3C2=O)cn1"
quantitativeresult = 0.04


====

# Tested on: NS3 protease domain from GT 1a HCV-infected subjects in replicon shuttle vector
# procedureText: Replicon transient transfection EC50, NS3 protease domain from subjects cloned into shuttle vector, GT 1a
# Assay type: cell-based
# details: Hepatitis C virus, GT1A, 96 h, read-out: EC50 Day 4, Subject N, GT 1a, 100/100 mg dose group, Day 4 sample
readoutKind: EC50 (nM)

[[record]]
compound = "Cc1cnc(C(=O)N[C@H]2CCCCC/C=C\\[C@@H]3C[C@@]3(C(=O)NS(=O)(=O)C3CC3)NC(=O)[C@@H]3C[C@@H](Oc4nc5ccccc5c5ccccc45)CN3C2=O)cn1 [Compound I]"
testedsystem = "NS3 protease domain from GT 1a HCV-infected subjects in replicon shuttle vector"
readoutkind = "EC50"
quantitativeresult = 0.64

